Every entry's value here was drawn from patent US12252531B2.

system: hLTBP1-proTGFβ1, hLTBP3-proTGFβ1, hGARP-proTGFβ1 and hLRRC33-proTGFβ1; test: MSD-SET, binding profile and bias across the four human LLCs; conditions: ratio of average KD cell-associated / matrix-associated
Listed below: (H) G/D (fold bias) values for each entry.
Reply with a number, then the unit it belongs to.

Ab24: proTGFβ1 antibody; VH SEQ ID NO: 132, VL SEQ ID NO: 15 (antibody, V domains shown) VH: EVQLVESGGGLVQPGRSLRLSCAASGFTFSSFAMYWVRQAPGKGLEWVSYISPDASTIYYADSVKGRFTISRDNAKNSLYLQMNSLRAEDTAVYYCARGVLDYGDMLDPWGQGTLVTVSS VL: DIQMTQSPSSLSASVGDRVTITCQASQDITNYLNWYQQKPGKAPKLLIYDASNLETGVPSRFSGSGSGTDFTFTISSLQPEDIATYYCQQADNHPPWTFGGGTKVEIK :: 4.35 fold

[in] // query (H) G/D (fold bias) value for entry Ab26: proTGFβ1 antibody; VH SEQ ID NO: 134, VL SEQ ID NO: 15 (antibody, V domains shown) VH: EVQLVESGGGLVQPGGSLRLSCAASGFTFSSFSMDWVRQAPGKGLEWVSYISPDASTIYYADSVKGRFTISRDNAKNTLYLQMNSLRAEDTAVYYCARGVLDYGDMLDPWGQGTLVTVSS VL: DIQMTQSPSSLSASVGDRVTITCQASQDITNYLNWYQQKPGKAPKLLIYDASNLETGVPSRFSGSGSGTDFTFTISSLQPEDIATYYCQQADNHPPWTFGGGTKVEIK
[out] 2.77 fold
